molecular target: T1, recombinant human IL-13 (human, UniProt P35225 35-146); assay: SPR
T1 construct: also called rh-IL-13; hIL-13
T1 sequence (P35225 35-146 limits assumed): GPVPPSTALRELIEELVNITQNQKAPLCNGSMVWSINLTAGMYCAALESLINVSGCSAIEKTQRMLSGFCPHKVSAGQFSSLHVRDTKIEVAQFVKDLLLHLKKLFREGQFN
readout label: kon (M⁻¹ s⁻¹)
Field format: number, assumed M⁻¹ s⁻¹, no unit text.

Guide cases for kon, answers given:
[[record]]
binder = "BDG38.129 (antibody, V domains shown, IgG1) VH: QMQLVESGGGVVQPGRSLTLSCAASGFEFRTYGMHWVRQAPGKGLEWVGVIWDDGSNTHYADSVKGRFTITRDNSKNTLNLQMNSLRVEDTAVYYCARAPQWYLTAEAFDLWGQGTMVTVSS VL: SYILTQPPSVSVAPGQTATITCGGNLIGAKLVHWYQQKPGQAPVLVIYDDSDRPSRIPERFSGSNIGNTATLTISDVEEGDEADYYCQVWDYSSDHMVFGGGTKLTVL"
result = "6.96e+06"

[[record]]
binder = "BDG38.131 (antibody, V domains shown, IgG1) VH: QMQLVESGGGVVQPGRSLTLSCAASGFEFRTYGMHWVRQAPGKGLEWVAVIWDDGSNTHYADSVKGRFTITRDNSKNTLNLQMNSLRAEDTAVYYCVRAPQWYLTAEAFDLWGQGTMVTVSS VL: SYILTQPPSVSVAPGETATITCGGNLIGAKLVHWYQQKPGQAPVLVIYDDSDRPSRIPERFSGSNIGNTATLTISDVEEGDEADYYCQVWDYYSNTMVFGGGTKLTVL"
result = "2e+06"

[[record]]
binder = "BDG38.139 (antibody, V domains shown, IgG1) VH: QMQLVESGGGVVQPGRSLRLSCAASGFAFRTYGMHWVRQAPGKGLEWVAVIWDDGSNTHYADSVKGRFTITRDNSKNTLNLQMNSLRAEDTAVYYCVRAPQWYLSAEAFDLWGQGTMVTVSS VL: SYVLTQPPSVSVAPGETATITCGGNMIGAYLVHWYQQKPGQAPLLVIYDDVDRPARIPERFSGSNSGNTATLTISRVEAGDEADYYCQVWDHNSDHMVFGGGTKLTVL"
result = "7.71e+06"

[[record]]
binder = "BDG38.134 (antibody, V domains shown, IgG1) VH: QMQLVESGGGVVQPGQSLRLSCAASGFEFRTYGMHWVRQAPGKGLEWLAVIWYDGSNTHYADSVKGRFTITRDNSKNTLNLQMNSLRAEDTAVYYCVRAPQWYNSAEAFDLWGQGTMVTVSS VL: SYVLTQPPSVSVAPGQTARITCGGNLIGARLVHWYQQKPGQAPVLVIYDDSDRPSHIPERFSGSNSGNTATLTISRVEAGDEADYYCQVWDYSADTMVFGGGTKLTVL"
result = "3.07e+06"


INPUT: Which measured kon value corresponds to BDG38.137 (antibody, V domains shown, IgG1) VH: QMQLVESGGGVVQPGQSLRLSCAASGFEFRTYGMHWVRQAPGKGLEWVAVIWDDGSNTHYADSVKGRFTITRDNSKNTLNLQMNSLRAEDTAVYYCVRAPQWYLTAEAFDLWGQGTMVTVSS VL: SYVLTQPPSVSVAPGETATITCGGNLIGARLVHWYQQKPGQAPVLVIYDDSDRPSHIPERFSGSNSGNTATLTISRVEAGDEADYYCQVWDYSADTMVFGGGTKLTVL ?
OUTPUT: 4.34e+06

INPUT: Which measured kon value corresponds to BDG38.128 (antibody, V domains shown, IgG1) VH: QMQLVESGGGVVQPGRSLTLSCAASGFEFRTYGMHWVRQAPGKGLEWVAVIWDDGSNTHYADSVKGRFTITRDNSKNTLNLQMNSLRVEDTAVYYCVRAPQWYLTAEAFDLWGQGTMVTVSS VL: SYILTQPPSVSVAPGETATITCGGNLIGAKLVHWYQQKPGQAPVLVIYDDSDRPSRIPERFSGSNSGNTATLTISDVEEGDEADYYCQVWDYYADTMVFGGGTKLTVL ?
OUTPUT: 5.49e+06
